test: in vitro; details: human
Where a name gives a salt, the structure may show the parent alone.
Below, each of the compounds is paired with its reported viability at 5 µM value.
measured-property: viability at 5 µM (%)

compound	unit-label	numeric-value
Cc1ccc(NC(=O)c2ccc(CN3CCN(C)CC3)cc2)cc1Nc1nccc(-c2cccnc2)n1	%	96
CN(C)CCCN1c2ccccc2CCc2ccc(Cl)cc21 [Clomipramine HCL]	%	98
COc1c(C)c2c(c(O)c1C/C=C(\C)CCC(=O)O)C(=O)OC2	%	48
CC(C)(C)C(=O)OCOP(=O)(COCCn1cnc2c(N)ncnc21)OCOC(=O)C(C)(C)C	%	54
COC(=O)C1=C(C)NC(C)=C(C(=O)OC2CCCN(Cc3ccccc3)C2)C1c1cccc([N+](=O)[O-])c1 (centres unmarked)	%	107
Cc1cn([C@H]2C=C[C@@H](CO)O2)c(=O)[nH]c1=O	%	103
C[C@@]1(O)[C@H](O)[C@@H](CO)O[C@H]1n1ccc(N)nc1=O	%	99
N#CC1(c2ccc(NC(=O)c3cccnc3NCc3ccncc3)cc2)CCCC1	%	95

----------
test system: Huh7 cells; conditions: 500 nM

compound	Cell Viability (%) Mean
C[C@@]1(F)[C@H](O)[C@@H](CO)O[C@H]1n1ccc(=O)[nH]c1=O [PSI-6206]	96%
[N-]=[N+]=N[C@]1(CO)O[C@@H](n2ccc(N)nc2=O)[C@@H](O)[C@@H]1O [R09187]	98%
CC(C)C(=O)OC[C@H]1O[C@@H](n2ccc(N)nc2=O)[C@](C)(F)[C@@H]1OC(=O)C(C)C [R-7128]	98%
COc1ccc(-n2cnc3cc(NCc4ccc(C(C)C)cc4)ccc32)cc1 [ST-193]	98%
CC(C)OC(=O)[C@H](C)N[P@@](=O)(OC[C@H]1O[C@@H](n2ccc(=O)[nH]c2=O)[C@](C)(F)[C@@H]1O)Oc1ccccc1 [PSI-7976]	99%
C#C[C@@]1(O)[C@H](O)[C@@H](CO)O[C@H]1n1ccc2c(N)ncnc21 [NITD008]	96%
CCCCCCCCCCCCCCCCn1cc[n+](Cc2ccccc2)c1C.[I-] [NH125]	63%
[N-]=[N+]=N[C@]1(CO)O[C@@H](n2ccc(N)nc2=O)[C@H](O)[C@@H]1O [R-1479]	101%

----------
tested on: rLUJV/ZsG; assay: microbe, parasite or virus in culture; format: cell-based, Lujo virus; details: Mammarenavirus lujoense, Huh-7; 5000 nM; read-out: Relative ZsG (%) Mean
Measured activity at 5 µM, listed per entry.

molecule	activity at 5 µM [%]
O=C1CCc2ccc(OCCCCN3CCN(c4cccc(Cl)c4Cl)CC3)cc2N1	16
O=C(NCCCNc1nc(Nc2cccc(NC(=O)N3CCCC3)c2)ncc1I)c1cccs1	9
Cc1ccc(NC(=O)c2ccc(CN3CCN(C)CC3)cc2)cc1Nc1nccc(-c2cccnc2)n1	56
CCOC(=O)c1c(CSc2ccccc2)n(C)c2cc(Br)c(O)c(CN(C)C)c12	40
COc1cc2ncnc(Nc3ccc(F)c(Cl)c3)c2cc1OCCCN1CCOCC1	48
Clc1ccc(CSC(Cn2ccnc2)c2ccc(Cl)cc2Cl)cc1 (centres unmarked) [Sulconazole nitrate]	42
CC(C)(C)C(=O)OCOP(=O)(COCCn1cnc2c(N)ncnc21)OCOC(=O)C(C)(C)C	24
CN(C)C/C=C/C(=O)Nc1cc2c(Nc3ccc(F)c(Cl)c3)ncnc2cc1O[C@H]1CCOC1	2

----------
test: in vitro; details: human
viability at 0.5 µM listing for selected molecules.

molecule	viability at 0.5 µM
N#Cc1cn([C@@H]2O[C@H](CO)[C@@H](O)[C@H]2O)c2ncnc(N)c12 [Toyocamycin]	64%
CC(C)(C)c1nc(-c2cccc(NS(=O)(=O)c3c(F)cccc3F)c2F)c(-c2ccnc(N)n2)s1 [Dabrafenib]	117%
Clc1ccc(COC(Cn2ccnc2)c2ccc(Cl)cc2Cl)c(Cl)c1 (centres unmarked) [Miconazole nitrate]	120%
CCOC(=O)C1=C(C)NC(C)=C(C(=O)OCC)C1c1ccccc1/C=C/C(=O)OC(C)(C)C [Lacidipine]	129%
COC(=O)C1=C(C)NC(C)=C(C(=O)OC2CCCN(Cc3ccccc3)C2)C1c1cccc([N+](=O)[O-])c1 (centres unmarked) [Benidipine]	129%
Nc1ccn([C@@H]2O[C@H](CO)[C@@H](O)[C@H]2F)c(=O)n1 [2′-deoxy-2′-fluorocytidine (2-dFC), 2′-deoxy-2′-fluorocytidine]	98%
CCOC(=O)c1c(CSc2ccccc2)n(C)c2cc(Br)c(O)c(CN(C)C)c12 [Arbidol]	139%
CN(C)C/C=C/C(=O)Nc1cc2c(Nc3ccc(F)c(Cl)c3)ncnc2cc1O[C@H]1CCOC1 [Afatinib]	136%

----------
test: in vitro; conditions: human
Structures can show the parent of a compound that is named as a salt.

compound	viability at 0.05 µM
CO[C@@H]1[C@H](O)[C@@H](CO)O[C@H]1n1ccc(N)nc1=O	98%
NCC(=O)Nc1ccc(-n2nc(C(F)(F)F)cc2-c2ccc3c(ccc4ccccc43)c2)cc1	129%
C[C@@H](c1nc(-c2ccc(C#N)cc2)cs1)[C@](O)(Cn1cncn1)c1cc(F)ccc1F	114%
C[C@@]1(O)[C@H](O)[C@@H](CO)O[C@H]1n1ccc(N)nc1=O	102%
O=C(NCCCNc1nc(Nc2cccc(NC(=O)N3CCCC3)c2)ncc1I)c1cccs1	128%
CN1CCC[C@@H]1CCO[C@](C)(c1ccccc1)c1ccc(Cl)cc1 [Clemastine fumarate]	115%
COc1cc2ncnc(Nc3ccc(F)c(Cl)c3)c2cc1OCCCN1CCOCC1	128%
CC(C)(C)C(=O)OCOP(=O)(COCCn1cnc2c(N)ncnc21)OCOC(=O)C(C)(C)C	123%
NC(=O)c1nc(F)c[nH]c1=O	101%
[N-]=[N+]=Nc1nc2c(N)ncnc2n1[C@@H]1O[C@H](CO)[C@@H](O)[C@H]1O	104%
C[C@@]1(O)[C@H](O)[C@@H](CO)O[C@H]1n1ccc(=O)[nH]c1=O	102%
N#CC1(c2ccc(NC(=O)c3cccnc3NCc3ccncc3)cc2)CCCC1	113%
O=c1[nH]c(=O)n([C@@H]2O[C@H](CO)[C@@H](O)[C@H]2O)cc1Cl	100%
CC[C@H](CC#N)OC(=O)N[C@@H](C)c1cccc(NC(=O)Nc2ccc(-c3cnco3)c(OC)c2)c1	103%
CC/C(=C(\c1ccccc1)c1ccc(OCCN(C)C)cc1)c1ccccc1 [Tamoxifene citrate]	123%
Cc1cn([C@H]2C[C@H](N=[N+]=[N-])[C@@H](CO)O2)c(=O)[nH]c1=O	97%
CC(C)/N=c1\cc2n(-c3ccc(Cl)cc3)c3ccccc3nc-2cc1Nc1ccc(Cl)cc1	120%
Nc1nc(Cl)nc2c1ncn2[C@@H]1O[C@H](CO)[C@@H](O)[C@H]1O	98%
Nc1ccn([C@@H]2O[C@H](CO)[C@@H](O)[C@H]2F)c(=O)n1	117%
COc1c(-c2ccc3cc(NS(C)(=O)=O)ccc3c2)cc(-n2ccc(=O)[nH]c2=O)cc1C(C)(C)C	99%
Clc1ccc(CSC(Cn2ccnc2)c2ccc(Cl)cc2Cl)cc1 (centres unmarked) [Sulconazole nitrate]	132%
CN(C)CCOc1ccc(/C(=C(/CCCl)c2ccccc2)c2ccccc2)cc1 [Toremifene citrate]	122%
NC(=O)c1ncn([C@@H]2O[C@H](CO)[C@@H](O)[C@H]2O)n1	124%
CNCC[C@H](Oc1cccc2ccccc12)c1cccs1 [Duloxetine HCL]	104%
Clc1ccc(COC(Cn2ccnc2)c2ccc(Cl)cc2Cl)c(Cl)c1 (centres unmarked) [Miconazole nitrate]	119%
O=C(Nc1ccc([N+](=O)[O-])cc1Cl)c1cc(Cl)ccc1O [Niclosamide]	77%
Cc1ccc(NC(=O)c2ccc(CN3CCN(C)CC3)cc2)cc1Nc1nccc(-c2cccnc2)n1	101%
COc1ccc2cc1Oc1ccc(cc1)C[C@H]1c3cc(c(OC)cc3CCN1C)Oc1c(OC)c(OC)cc3c1[C@H](C2)N(C)CC3	115%
CO[C@@H]1[C@H](O)[C@@H](CO)O[C@H]1n1ccc(=O)[nH]c1=O	97%
O=c1[nH]c(=O)n([C@@H]2O[C@H](CO)[C@@H](O)[C@H]2O)cc1F	97%
Cc1cn([C@H]2C=C[C@@H](CO)O2)c(=O)[nH]c1=O	101%
Cc1c(-c2ccc(-c3ccccc3F)cc2)nc2ccc(F)cc2c1C(=O)O	113%

----------
system: Huh7 cells; settings: 50 nM

substance-smiles	Cell Viability (%) Mean
Nc1cccc(-c2cc3c(Oc4cccc(O)c4)ncnc3[nH]2)c1	135
C[C@@]1(F)[C@H](O)[C@@H](CO)O[C@H]1n1ccc(=O)[nH]c1=O	103
[N-]=[N+]=N[C@]1(CO)O[C@@H](n2ccc(N)nc2=O)[C@H](O)[C@@H]1O	104
C[C@H](Cn1cnc2c(N)ncnc21)OCP(=O)(O)O	101
C[C@@]1(O)[C@H](O)[C@@H](CO)O[C@H]1n1ccc2c(N)ncnc21	98
C#C[C@@]1(O)[C@H](O)[C@@H](CO)O[C@H]1n1ccc2c(N)ncnc21	99

Data provenance: paper PMC8310135
